test system: MOLM-13; assay: MOLM-13 Cellular Growth Inhibition Assay (CellTiter-Glo); format: cell-based; conditions: Homo sapiens, 168 h, MOLM-13 cells, 7 days of incubation
readout_type: CC50

Worked examples, 3 molecules total:
CCS(=O)(=O)NC12CC(CN3CCC4(CC3)CN(c3ncnc5ccc(CC(F)(F)F)cc35)C4)(C1)C2 [Compound 74]    10 to 20 µM
CCS(=O)(=O)N[C@H]1CC[C@H](Cn2cc(CNc3ncnc4ccc(CC(F)(F)F)cc34)nn2)CC1 [Compound 69]    5 to 10 µM
CCS(=O)(=O)N[C@H]1CC[C@H](CNc2ccc(CN3CCC4(CC3)CN(c3ncnc5ccc(CC(F)(F)F)cc35)C4)cc2)CC1 [Compound 79]    1 to 5 µM

API: the following record is the query input.
Lookup: What does the record list as CC50 for CCS(=O)(=O)N[C@H]1CC[C@H](CN2CCC3(CC2)CN(c2ncnc4ccc(CCc5ccccc5)cc24)C3)CC1 [Compound 51] ?
Found: 5 to 10 µM
